Target: HRH3 (Homo sapiens)
Construct: purchased Promega (in-house HiBiT-GPCR construct library, NanoBRET)
Sequence (Q9Y5N1 whole entry): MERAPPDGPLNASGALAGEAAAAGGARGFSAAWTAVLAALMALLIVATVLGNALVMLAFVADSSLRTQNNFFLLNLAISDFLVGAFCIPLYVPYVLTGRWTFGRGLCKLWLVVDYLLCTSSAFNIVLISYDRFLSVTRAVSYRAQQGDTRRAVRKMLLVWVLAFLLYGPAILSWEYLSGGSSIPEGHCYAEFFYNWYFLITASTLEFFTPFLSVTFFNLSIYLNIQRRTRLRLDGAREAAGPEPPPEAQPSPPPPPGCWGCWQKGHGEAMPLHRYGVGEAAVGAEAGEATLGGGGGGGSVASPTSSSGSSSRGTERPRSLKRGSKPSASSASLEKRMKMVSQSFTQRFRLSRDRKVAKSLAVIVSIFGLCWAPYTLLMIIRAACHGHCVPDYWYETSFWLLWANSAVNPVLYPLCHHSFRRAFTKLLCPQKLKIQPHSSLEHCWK
Test: NanoBRET screen HiBiT-HRH3 in HEK293
Assay type: binding
Conditions: HRH3; tracer 1μM
Mark Not met for NanoBRET Fold Response values under 1, and Met for everything at or above.

>>> discrete_label("COc1ccccc1N1CCN(CCCCN2C(=O)c3ccc(CNC(=O)CCOCCNC(=O)c4ccc(CNC(=O)CCc5ccc6n5[B-](F)(F)[N+]5=C(c7ccc[nH]7)C=CC5=C6)cc4)cc3C2=O)CC1 [NAN-190-3-NB590]")
"Not met"
>>> discrete_label("Cc1nc2n(c(=O)c1CCN1CCC(c3noc4cc(F)ccc34)CC1)CCCC2OC(=O)NCCOCCOCCOCCOCCNC(=O)CCc1ccc2n1[B-](F)(F)[N+]1=C(c3ccc[nH]3)C=CC1=C2 (centres unmarked) [Risperidone-2-NB590]")
"Met"
>>> discrete_label("Cc1cc2c(s1)Nc1ccccc1N=C2N1CCN(CCCNC(=O)CCOCCOCCOCCOCCNC(=O)CCc2ccc3n2[B-](F)(F)[N+]2=C(c4ccc[nH]4)C=CC2=C3)CC1 [Olanzapine-a-2-NB590]")
"Met"
>>> discrete_label("CCCn1c(=O)c2[nH]c(-c3ccc(OCC(=O)NCCNC(=O)CCOCCNC(=O)c4ccc(CNC(=O)CCc5ccc6n5[B-](F)(F)[N+]5=C(c7ccc[nH]7)C=CC5=C6)cc4)cc3)nc2n(CCC)c1=O [XAC-3-NB590]")
"Met"
>>> discrete_label("COc1ccccc1N1CCN(CCCCN2C(=O)c3ccc(CNC(=O)CCOCCOCCOCCOCCNC(=O)CCc4ccc5n4[B-](F)(F)[N+]4=C(c6ccc[nH]6)C=CC4=C5)cc3C2=O)CC1 [NAN-190-2-NB590]")
"Not met"
>>> discrete_label("CC(C)N(CC[C@H](c1ccccc1)c1cc(CCNC(=O)c2ccc(CNC(=O)CCc3ccc4n3[B-](F)(F)[N+]3=C(c5ccc[nH]5)C=CC3=C4)cc2)ccc1O)C(C)C [Tolterodine-BZ-NB590]")
"Met"
>>> discrete_label("O=C(CCc1ccc2n1[B-](F)(F)[N+]1=C(c3ccc[nH]3)C=CC1=C2)NCc1ccc(C(=O)NCCOCCC(=O)N[C@@H]2CC[C@@]3(O)[C@H]4Cc5ccc(O)c6c5[C@@]3(CCN4CC3CC3)[C@H]2O6)cc1 [Naltrexone-3-NB590]")
"Not met"
>>> discrete_label("N#CN=C(NCCCOc1cccc(CN2CCCCC2)c1)NCCNC(=O)CCOCCOCCOCCOCCNC(=O)CCc1ccc2n1[B-](F)(F)[N+]1=C(c3ccc[nH]3)C=CC1=C2 [Aminopotentidine-2-NB590]")
"Met"
>>> discrete_label("CC(C)N(CC[C@H](c1ccccc1)c1cc(CCNC(=O)CCOCCOCCOCCOCCNC(=O)CCc2ccc3n2[B-](F)(F)[N+]2=C(c4ccc[nH]4)C=CC2=C3)ccc1O)C(C)C [Tolterodine-2-NB590]")
"Met"

Source listed as paper PMC8151276.
